Cited source for all entries: PubChem BioAssay (NCI)

# Experimental Details: NCI Yeast Anticancer Drug Screen. Data for the mlh1 rad18 strain (AID 175)
# Protocol Conditions: S. cerevisiae mlh1 rad18 strain growth inhibition; at 50.0 µM; hits give high values
The panel holds about 79,000 compounds, 15% with a hit somewhere; the sample as a whole holds those more often.
Would you mind telling me the reported growth inhibition of each entry?
Answers are plain numbers, in %.

Reference set (2 entries):
| Compound | Measurement Name | Unit Symbol | Measured Value |
| --- | --- | --- | --- |
| c1ccc(C2NC(c3ccccc3)c3c(ccc4ccccc34)O2)cc1 (stereo unspecified) | growth inhibition | % | 20.6 |
| CCC(/C=N\O)CC | growth inhibition | % | 17.1 |

Please state growth inhibition for every compound in the list that follows.
1. CCOc1ccc(C=O)cc1OCC
2. CCCCC1(C#Cc2ccccc2)Sc2ccccc2N1C (stereo unspecified)
3. c1ccc(-n2nnc3c2CCCC3)cc1
4. CO[Si](C)(C)OC
5. C(CC1CCNCC1)CC1CCNCC1
6. FC12CCC(c3ccccc3)(CC1)CC2
7. CNC(=O)N(C)c1cc(N(C)C)nc(OC)n1
8. Nc1ccc2c(c1)C1C(C3C2C2(Cl)C(Cl)=C(Cl)C3(Cl)C2(Cl)Cl)C2(Cl)C(Cl)=C(Cl)C1(Cl)C2(Cl)Cl (stereo unspecified)

1: -10.3; 2: 2.25; 3: -1.65; 4: -13.9; 5: -64.7; 6: -7.4; 7: -23.4; 8: 39.5
